Molecular target: α1A adrenoceptor (Rattus norvegicus)
Construct: from tissue; host or cells: rat submaxillary gland membranes
Sequence (P43140 1-466): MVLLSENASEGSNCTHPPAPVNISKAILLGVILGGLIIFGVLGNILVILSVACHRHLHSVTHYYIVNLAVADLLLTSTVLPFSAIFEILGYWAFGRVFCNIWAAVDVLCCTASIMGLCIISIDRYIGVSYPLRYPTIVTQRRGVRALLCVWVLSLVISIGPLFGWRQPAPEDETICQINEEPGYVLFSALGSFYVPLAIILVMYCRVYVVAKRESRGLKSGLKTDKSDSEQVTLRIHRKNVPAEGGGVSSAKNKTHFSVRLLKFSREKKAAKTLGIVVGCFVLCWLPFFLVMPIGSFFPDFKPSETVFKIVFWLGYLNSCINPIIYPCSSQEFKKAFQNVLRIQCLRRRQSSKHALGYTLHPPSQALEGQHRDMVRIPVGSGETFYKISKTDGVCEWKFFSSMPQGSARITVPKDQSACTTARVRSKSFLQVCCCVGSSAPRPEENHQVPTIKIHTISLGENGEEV
Test: Receptor binding assay, displacement of [3H]prazosin, rat submaxillary membranes
Details: ratio of Ki α1B (rat liver) / α1A (rat submaxillary)
Structures can show the parent of a compound that is named as a salt.
recorded.metric: Selectivity α1B/α1A

Cl.O=C1C2CC=CCC2C(=O)N1CCCN1CCN(Cc2ccccc2)CC1 (centres unmarked) [Compound 14] : 1
Cc1ccc(Cl)cc1N1CCN(CCCN2C(=O)C3CC=CCC3C2=O)CC1.Cl (centres unmarked) [Compound 12] : 5.9
O=C1[C@H]2CC=CC[C@H]2C(=O)N1CCCN1CCN(C(c2ccc(F)cc2)c2ccc(F)cc2)CC1 [Compound 19, hydrochloride] : 15
COc1ccc(OC)c(N2CCN(CCCN3C(=O)C4CC=CCC4C3=O)CC2)c1.Cl (centres unmarked) [Compound 26] : 13
CC(C)Oc1ccccc1N1CCN(CCCN2C(=O)C3CC=CCC3C2=O)CC1.Cl (centres unmarked) [Compound 23] : 175
Cl.O=C1C2CC=CCC2C(=O)N1CCCN1CCN(c2ccc(F)cc2)CC1 (centres unmarked) [Compound 04] : 4.5

1. CCOc1ccccc1N1CCN(CCCN2C(=O)C3CC=CCC3C2=O)CC1.Cl (centres unmarked) [Compound 11]
2. Cc1ccccc1N1CCN(CCCN2C(=O)[C@H]3CC=CC[C@H]3C2=O)CC1 [Compound 03]
[Q] Of the pair 1 and 2 , name the member with the lesser recorded Selectivity α1B/α1A. Return value: the label identifying the chosen record.
[A] 2

---

Molecular target: α1A adrenoceptor (Rattus norvegicus)
Construct: from tissue; host or cells: rat submaxillary gland membranes
Sequence (P43140 1-466): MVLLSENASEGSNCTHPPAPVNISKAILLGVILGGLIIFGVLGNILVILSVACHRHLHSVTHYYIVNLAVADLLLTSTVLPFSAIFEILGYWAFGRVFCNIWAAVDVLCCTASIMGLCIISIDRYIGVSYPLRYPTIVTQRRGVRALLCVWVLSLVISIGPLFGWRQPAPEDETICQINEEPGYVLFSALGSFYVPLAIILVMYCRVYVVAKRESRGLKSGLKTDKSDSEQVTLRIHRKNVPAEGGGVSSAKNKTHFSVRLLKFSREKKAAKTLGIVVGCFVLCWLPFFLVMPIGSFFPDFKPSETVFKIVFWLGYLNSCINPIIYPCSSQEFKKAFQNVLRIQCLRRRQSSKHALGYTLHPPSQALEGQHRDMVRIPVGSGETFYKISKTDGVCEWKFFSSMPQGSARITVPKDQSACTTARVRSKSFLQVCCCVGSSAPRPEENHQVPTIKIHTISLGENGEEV
Experiment: Receptor binding assay, displacement of [3H]prazosin, rat submaxillary membranes
Details: ratio of Ki α1B (rat liver) / α1A (rat submaxillary)
recorded.metric: Selectivity α1B/α1A

a. Cl.O=C1C2CC=CCC2C(=O)N1CCCN1CCN(c2ccc(Cl)cc2Cl)CC1 (stereo not shown)
b. Cc1ccc(N2CCN(CCCN3C(=O)C4CC=CCC4C3=O)CC2)cc1C.Cl (stereo not shown)
c. Cl.O=C1C2CC=CCC2C(=O)N1CCCN1CCN(CC=Cc2ccccc2)CC1 (stereo not shown)
[Q] Reorder the records above by Selectivity α1B/α1A so that values decrease. Answer by listing the labels in the order asked for.
[A] a, b, c
(a: 11, b: 2.7, c: 1)

P. COc1cc(F)ccc1N1CCN(CCCN2C(=O)C3CC=CCC3C2=O)CC1.Cl (stereo not shown)
Q. CC(C)(C)c1ccc(N2CCN(CCCN3C(=O)C4CC=CCC4C3=O)CC2)cc1.Cl (stereo not shown)
R. Cl.O=C1C2CC=CCC2C(=O)N1CCCN1CCN(c2cccc(Cl)c2)CC1 (stereo not shown)
[Q] Rank entries according to their Selectivity α1B/α1A, from the largest number down. Labels, requested order.
[A] P, R, Q

A. COc1ccccc1N1CCN(C(C)CCN2C(=O)C3CC=CCC3C2=O)CC1.Cl (stereo not shown)
B. COc1cccc(O)c1N1CCN(CCCN2C(=O)C3CC=CCC3C2=O)CC1.Cl (stereo not shown)
[Q] Thinking about recorded Selectivity α1B/α1A values, which is higher, A or B ? Answer by stating the label of the chosen item.
[A] A
(A: 205, B: 1)

---

Target: α1B adrenoceptor (Rattus norvegicus, UniProt P15823)
Construct: from tissue; host or cells: rat liver membranes
Sequence (P15823 whole entry): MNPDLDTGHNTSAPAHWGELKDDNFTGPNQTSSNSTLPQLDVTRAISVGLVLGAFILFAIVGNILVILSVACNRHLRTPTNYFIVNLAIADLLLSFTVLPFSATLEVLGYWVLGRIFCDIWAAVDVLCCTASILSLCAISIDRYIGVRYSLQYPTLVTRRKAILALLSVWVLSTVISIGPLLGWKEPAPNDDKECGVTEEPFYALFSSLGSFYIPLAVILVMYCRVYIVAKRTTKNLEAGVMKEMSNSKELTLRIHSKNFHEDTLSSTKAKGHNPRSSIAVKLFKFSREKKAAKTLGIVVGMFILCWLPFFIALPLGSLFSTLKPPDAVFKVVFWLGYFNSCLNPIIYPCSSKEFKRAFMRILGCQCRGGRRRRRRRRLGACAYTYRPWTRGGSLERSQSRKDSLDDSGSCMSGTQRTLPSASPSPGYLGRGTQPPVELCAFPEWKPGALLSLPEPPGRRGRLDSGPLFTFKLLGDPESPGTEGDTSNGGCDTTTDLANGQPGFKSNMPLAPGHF
Assay: Receptor binding assay, displacement of [3H]prazosin, rat liver membranes
Conditions: [3H]prazosin displacement, rat liver membranes; read-out: α1B (Rat liver) Ki
pKi: −log10 of the molar value.
recorded.metric: pKi

COc1cc(F)ccc1N1CCN(CCCN2C(=O)C3CC=CCC3C2=O)CC1.Cl (stereo not shown) [Compound 18, hydrochloride] : 6.57
Cc1ccc(N2CCN(CCCN3C(=O)C4CC=CCC4C3=O)CC2)cc1Cl.Cl (stereo not shown) [Compound 17, hydrochloride] : 7.43

A. COc1ccccc1N1CCN(C(C)CCN2C(=O)C3CC=CCC3C2=O)CC1.Cl (stereo not shown) [Compound 29, hydrochloride]
B. CC(C)Oc1ccccc1N1CCN(CCCN2C(=O)C3CC=CCC3C2=O)CC1.Cl (stereo not shown) [Compound 23, hydrochloride]
[Q] Lower value for measured pKi? Options: A , B I would appreciate it if you answered with the label of your choice.
[A] A

---

Target: α1B adrenoceptor (Rattus norvegicus, UniProt P15823)
Construct: from tissue; host or cells: rat liver membranes
Assay: Receptor binding assay, displacement of [3H]prazosin, rat liver membranes
Settings: [3H]prazosin displacement, rat liver membranes; read-out: α1B (Rat liver) Ki
pKi: −log10 of the molar value. Structures can show the parent of a compound that is named as a salt.
recorded.metric: pKi

Guide cases for pKi, answers given:
CCOc1ccccc1N1CCN(CCCN2C(=O)C3CC=CCC3C2=O)CC1.Cl (centres unmarked) [Compound 11, hydrochloride] : 7.72
CCCOc1ccccc1N1CCN(CCCN2C(=O)C3CC=CCC3C2=O)CC1.Cl (centres unmarked) [Compound 24, hydrochloride] : 7.55
COc1ccccc1N1CCN(CCCN2C(=O)C3CC=CCC3C2=O)CC1.Cl (centres unmarked) [Compound 01, hydrochloride] : 7.14

A. Cl.O=C1C2CC=CCC2C(=O)N1CCCN1CCN(c2ccccc2F)CC1 (centres unmarked) [Compound 06, hydrochloride]
B. COc1ccc(F)cc1N1CCN(CCCN2C(=O)C3CC=CCC3C2=O)CC1.Cl (centres unmarked) [Compound 08, hydrochloride]
C. Cc1ccccc1N1CCN(CCCN2C(=O)[C@H]3CC=CC[C@H]3C2=O)CC1 [Compound 03]
D. O=C1[C@H]2CC=CC[C@H]2C(=O)N1CCCN1CCN(C(c2ccc(F)cc2)c2ccc(F)cc2)CC1 [Compound 19, hydrochloride]
E. Cc1ccc(Cl)cc1N1CCN(CCCN2C(=O)C3CC=CCC3C2=O)CC1.Cl (centres unmarked) [Compound 12, hydrochloride]
[Q] # desc sort on pKi across 5 compounds Output spec: a listing of the labels in the requested order.
[A] B, E, D, C, A

I. COc1ccccc1N1CCN(CC(C)CN2C(=O)C3CC=CCC3C2=O)CC1.Cl (centres unmarked) [Compound 30, hydrochloride]
II. Cl.O=C1C2CC=CCC2C(=O)N1CCCN1CCN(c2ccccc2)CC1 (centres unmarked) [Compound 13, hydrochloride]
III. Cl.O=C1C2CC=CCC2C(=O)N1CCCN1CCN(c2ccc(F)cc2F)CC1 (centres unmarked) [Compound 10, hydrochloride]
IV. CCc1ccccc1N1CCN(CCCN2C(=O)C3CC=CCC3C2=O)CC1.Cl (centres unmarked) [Compound 09, hydrochloride]
[Q] # rank_down: sort by pKi, max first The response must list the labels following the requested ordering.
[A] IV, III, II, I

a. CCOc1ccccc1N1CCN(C(C)CCN2C(=O)C3CC=CCC3C2=O)CC1.Cl (centres unmarked) [Compound 31, hydrochloride]
b. Cl.O=C1C2CC=CCC2C(=O)N1CCCN1CCN(c2cccc(Cl)c2)CC1 (centres unmarked) [Compound 02, hydrochloride]
[Q] // select label with min value of measured pKi from [ a , b ] Pick one; state its label.
[A] b
(b: 6.40, a: 6.63)
